Values compiled from ChEMBL document CHEMBL3507680.

TEST_DETAILS: Human HepG2 cell viability assay in 384 well format
Format: toxicity, cell-based
Parameters: dose 125 nL, time 70.5 hour; concentration not given beside the values
CONDITION_CONTEXT: HepG2 cells, read-out: Inhibition
The compounds listed here are annotated with their cytotoxicity at 70.5 h.

# COMPOUND, cytotoxicity at 70.5 h (%)
measured = [
    ("c1ccn2c(C3CCCN(c4ncnc5c4CCNC5)C3)nnc2c1 (stereo not drawn)", 8.25),
    ("Cc1nnc2n1CCN(CC(O)CN1CCC(C)CC1)C2 (stereo not drawn)", -2.86),
    ("Cc1ccc(-c2cc(-c3c(C)nn(CCO)c3C)c(C#N)c(N)n2)cc1", 0.809),
    ("CC(C)CC(=O)N1CCCC1c1nccnc1Nc1ncccn1 (stereo not drawn)", 29.4),
    ("CCOCC(=O)NCCC(O)c1ccoc1 (stereo not drawn)", -11.9),
    ("CSCCCN1CCc2nc(N(C)C)nc(N3CCC(O)CC3)c2C1", -6.06),
    ("O=C(NCCCc1ccc(F)cc1)c1ccc(N2CCOCC2)cc1", 2.69),
    ("Cc1cnn(CC2CCCN2C(=O)c2ccc(F)cc2Cl)c1 (stereo not drawn)", 0.634),
    ("Cc1cc(NCc2ccc(CO)cc2)n2nc(C)cc2n1", -0.853),
    ("CCCN1C[C@H]2CC[C@@H]1CN(Cc1ccc(Cn3cccn3)cc1)C2", -7.61),
    ("CC(C)(C)n1ncc2c1CCCC2NCc1ccc2c(c1)CCO2 (stereo not drawn)", 9.44),
    ("Cc1cnn(CC2CN(CC(=O)N3CCc4ccccc43)CCO2)c1 (stereo not drawn)", -10.9),
    ("O=C(NCc1nc2ccccc2[nH]1)c1cc2n(n1)CCCO2", -1.37),
    ("COc1cccc(Cl)c1-c1cc(CN)ccc1F", -13.8),
    ("CC(C)CSCCCNC(=O)C1CCC1", -2.26),
    ("Cc1cnn(CC(=O)N2CCC3(CCC(=O)N(CC(C)O)C3)CC2)c1 (stereo not drawn)", -5.26),
    ("O=C(CNC(=O)C1CC1)NCCOc1cccc(Cl)c1Cl", 31.3),
    ("Cc1cc(C)n(CC(=O)Nc2cc(-c3ccncc3)[nH]n2)n1", -4.82),
    ("O=C1CC2(CCN(CC3CC3)C2)CN1c1cccc(F)c1 (stereo not drawn)", 6.96),
    ("Cc1nn(C)c(N2CCOCC2)c1CNC1CCS(=O)(=O)C1 (stereo not drawn)", -6.08),
    ("O=C(CCNc1ncccn1)NCCOc1ccc2c(c1)CCC2", -16.3),
    ("Cc1nccn1C1CCCN(C(=O)Cn2ccc(=O)n(C)c2=O)C1 (stereo not drawn)", -14.6),
    ("CN1CC(Nc2ccc(Br)cc2C#N)CCC1=O (stereo not drawn)", -0.708),
    ("CNC(=O)C1CN(c2ccc(F)cc2)CCN1 (stereo not drawn)", -1.89),
    ("N#CC1(NC(=O)Cc2cc(Cl)c3c(c2)OCCO3)CCC1", -10.5),
    ("CN(C)S(=O)(=O)N1C[C@@H]2CC[C@H](C1)N(Cc1cccc(C#N)c1)C2", -8.84),
    ("CNS(=O)(=O)c1ccc(CNC(=O)Nc2ccccn2)s1", 3.18),
    ("COCCCN(C)c1cc(C(F)(F)F)nc(-c2cccnc2)n1", -5.74),
    ("CCCn1cc(C(=O)NCCC(=O)NC2CCCCC2)c(C)n1", -4.38),
    ("COCC1c2nnn(C)c2CCN1C(=O)COc1ccccc1C (stereo not drawn)", -4.54),
    ("COc1ccc(C(=O)CN(C2=NCCCCC2)c2ccccc2)cc1", -25.8),
    ("Cc1ccc(S(=O)(=O)N2CCC(S(C)(=O)=O)CC2)cc1C", -0.502),
    ("CCS(=O)(=O)N1Cc2[nH]nc(COCc3cccnc3)c2C1", -2.23),
    ("Cc1cccc(C)c1OCC(O)CNCc1c(C)nn(C)c1N(C)C (stereo not drawn)", -4.45),
    ("Cc1cccc2nc(C(=O)N3CCCC[C@]4(C)NC(=O)CCC[C@H]34)cn12", -5.3),
    ("CC(C(=O)Nc1ccon1)n1ccc(C(F)(F)F)n1 (stereo not drawn)", 15.3),
    ("COc1ccccc1OCCNC(=O)NCC(C)C", -12.4),
    ("Cc1nc2ncnn2c2ccn(-c3cccnc3O)c(=O)c12", -15.9),
    ("COc1ccc(-c2c(C)nn3c(=N)c(C#N)n[nH]c23)cc1", -12.3),
    ("Cc1cc2nccc(C3CCCN(C(=O)c4cnccn4)C3)n2n1 (stereo not drawn)", 0.174),
    ("CC(Cn1cncc1-c1cnn(C2CCCCC2)c1)N1CCCCC1 (stereo not drawn)", 25),
    ("Fc1ccc(CN2CCOC(Cn3cncn3)C2)c2ncccc12 (stereo not drawn)", -3.84),
    ("O=C(Nc1ncn(Cc2cccc(Br)c2)n1)C1CCC1", -13.9),
    ("CCOCC1CN(CCN2CCCCC2)Cc2cnn(C)c21 (stereo not drawn)", 2.16),
    ("Cc1nc2sccn2c1CN(CCCN(C)C)Cc1ccccn1", -8.06),
    ("Cc1nc(Cn2nc(C3CCNCC3)n(Cc3ccccc3)c2=O)no1", 6.65),
    ("COc1ccc2c(ccn2CCC(=O)Nc2n[nH]c(C(C)C)n2)c1", 24.3),
    ("CC(C)N1CCOC(CC(=O)N2CCCN(Cc3ccncc3)CC2)C1 (stereo not drawn)", 15.7),
]
